Reference source: the supplement of paper PMC4932681

- Test system: ZR-75-1 Tam2
- ASSAY_COMMENT: viability inhibition at highest dose (% inhibition); higher = more growth inhibition
- MEASUREMENT_CONTEXT: 4-OH-tamoxifen in medium 1 µM; 72 h
With a cut-off of 20, any viability inhibition at highest dose strictly below it is called 1; any viability inhibition at highest dose meeting it or above is called -1.

Lookup: Lab log: compare recorded viability inhibition at highest dose with 20; is it strictly lower for Cn1c(Nc2ccc(C(F)(F)F)cc2)nc2cc(Oc3ccnc(-c4ncc(C(F)(F)F)[nH]4)c3)ccc21 [RAF265] (drug 1000 nM) ?
Found: 1

Lookup: Lab log: compare recorded viability inhibition at highest dose with 20; is it strictly lower for N[C@@H](CSC(c1ccccc1)(c1ccccc1)c1ccccc1)C(=O)O [S-trityl-L-cysteine] (drug 40000 nM) ?
Found: 1

Lookup: Lab log: compare recorded viability inhibition at highest dose with 20; is it strictly lower for CC(C)n1nc(-c2ccc3oc(N)nc3c2)c2c(N)ncnc21 [INK128] (drug 1000 nM) ?
Found: -1

Lookup: Lab log: compare recorded viability inhibition at highest dose with 20; is it strictly lower for CC(C)C[C@H](NC(=O)[C@H](Cc1ccccc1)NC(=O)c1cnccn1)B(O)O [Bortezomib] (drug 1000 nM) ?
Found: -1

Lookup: Lab log: compare recorded viability inhibition at highest dose with 20; is it strictly lower for O=C(CCCCCCC(=O)Nc1ccc([C@H]2O[C@@H](CSc3nc(-c4ccccc4)c(-c4ccccc4)o3)C[C@@H](c3ccc(CO)cc3)O2)cc1)NO [Tubacin] (drug 10000 nM) ?
Found: 1

Lookup: Lab log: compare recorded viability inhibition at highest dose with 20; is it strictly lower for Nc1ccn([C@@H]2O[C@H](CO)[C@@H](O)[C@@H]2O)c(=O)n1 [Cytarabine] (drug 10000 nM) ?
Found: -1

Lookup: Lab log: compare recorded viability inhibition at highest dose with 20; is it strictly lower for CNNCc1ccc(C(=O)NC(C)C)cc1 [Procarbazine] (drug 10000 nM) ?
Found: 1

Lookup: Lab log: compare recorded viability inhibition at highest dose with 20; is it strictly lower for Cc1ccc(NC(=O)c2ccc(CN3CCN(C)CC3)cc2)cc1Nc1nc(-c2cccnc2)cs1 [Masitinib] (drug 10000 nM) ?
Found: -1

====

- Tested on: T-47D
- ASSAY_COMMENT: viability inhibition at highest dose (% inhibition); higher = more growth inhibition
- MEASUREMENT_CONTEXT: 4-OH-tamoxifen in medium 1 µM; 72 h
Please respond with reported viability inhibition at highest dose for every item in the list.
Just the number, please, no unit attached.

Lookup: I am curious: what viability inhibition at highest dose value has been reported for Cn1c(Nc2ccc(C(F)(F)F)cc2)nc2cc(Oc3ccnc(-c4ncc(C(F)(F)F)[nH]4)c3)ccc21 [RAF265] (drug 1000 nM) ?
Found: -5.82

Lookup: I am curious: what viability inhibition at highest dose value has been reported for CO[C@@H]1[C@H](N(C)C(=O)c2ccccc2)C[C@H]2O[C@]1(C)n1c3ccccc3c3c4c(c5c6ccccc6n2c5c31)C(=O)NC4 [Midostaurin (PKC412)] (drug 10000 nM) ?
Found: 39.4

Lookup: I am curious: what viability inhibition at highest dose value has been reported for C=CCNC1=C2C[C@@H](C)C[C@H](OC)[C@H](O)[C@@H](C)/C=C(\C)[C@H](OC(N)=O)[C@@H](OC)/C=C\C=C(/C)C(=O)NC(=CC1=O)C2=O [Tanespimycin (17-AAG)] (drug 10000 nM) ?
Found: 43.3

Lookup: I am curious: what viability inhibition at highest dose value has been reported for O=C1c2c(O)ccc(O)c2C(=O)c2c(NCCNCCO)ccc(NCCNCCO)c21 [Mitoxantrone] (drug 1000 nM) ?
Found: 2.9

Lookup: I am curious: what viability inhibition at highest dose value has been reported for Cn1cc(CNCC2CCN(c3ncc(C(=O)NO)cn3)CC2)c2ccccc21 (drug 1000 nM) ?
Found: 94.1

Lookup: I am curious: what viability inhibition at highest dose value has been reported for CCCCCCCCc1ccc(CCC(N)(CO)CO)cc1 [Fingolimod] (drug 10000 nM) ?
Found: 91.9

Lookup: I am curious: what viability inhibition at highest dose value has been reported for COc1ccc(C2=N[C@@H](c3ccc(Cl)cc3)[C@@H](c3ccc(Cl)cc3)N2C(=O)N2CCNC(=O)C2)c(OC(C)C)c1 [Nutlin-3] (drug 10000 nM) ?
Found: 1.4

Lookup: I am curious: what viability inhibition at highest dose value has been reported for CC1(C)NC(=O)N(c2ccc([N+](=O)[O-])c(C(F)(F)F)c2)C1=O [Nilutamide] (drug 10000 nM) ?
Found: -11.8

Lookup: I am curious: what viability inhibition at highest dose value has been reported for c1cc(CN2CCCNCCNCCCNCC2)ccc1CN1CCCNCCNCCCNCC1 [Plerixafor] (drug 2500 nM) ?
Found: -11.9

Lookup: I am curious: what viability inhibition at highest dose value has been reported for C[C@@H]1C[C@H]2[C@@H]3CCC4=CC(=O)C=C[C@]4(C)[C@@]3(F)[C@@H](O)C[C@]2(C)[C@@]1(O)C(=O)CO [Dexamethasone (Decadron)] (drug 10000 nM) ?
Found: -19

Lookup: I am curious: what viability inhibition at highest dose value has been reported for CC[C@H](Nc1ncnc2[nH]cnc12)c1nc2cccc(F)c2c(=O)n1-c1ccccc1 [CAL-101] (drug 10000 nM) ?
Found: 13.7

====

- Test system: T-47D Tam1
- ASSAY_COMMENT: drug sensitivity score (DSS) (DSS (dimensionless)); higher = more sensitive; extreme values may be limits of the assay
- MEASUREMENT_CONTEXT: 4-OH-tamoxifen in medium 1 µM; 72 h
Structures can show the parent of a compound that is named as a salt.
Where drug sensitivity score equals or exceeds 7, the correct label is fulfilled; where it does not, the label is not fulfilled.

Lookup: Check the entry COc1ccc(S(=O)(=O)Nc2cccnc2Nc2ccc(O)cc2)cc1 [ABT-751] : does drug sensitivity score equal or exceed 7?
Found: not fulfilled

Lookup: Check the entry CC(C)C(=O)Nc1ccc([N+](=O)[O-])c(C(F)(F)F)c1 [Flutamide] : does drug sensitivity score equal or exceed 7?
Found: not fulfilled

Lookup: Check the entry COc1cc2/c(=N/c3ccc(Br)cc3F)nc[nH]c2cc1OCC1CCN(C)CC1 [Vandetanib (ZD6474, Zactima)] : does drug sensitivity score equal or exceed 7?
Found: not fulfilled

Lookup: Check the entry CO[C@@H](C(=O)N1Cc2[nH]nc(NC(=O)c3ccc(N4CCN(C)CC4)cc3)c2C1)c1ccccc1 : does drug sensitivity score equal or exceed 7?
Found: not fulfilled

Lookup: Check the entry CCNC(=O)c1noc(-c2cc(C(C)C)c(O)cc2O)c1-c1ccc(CN2CCOCC2)cc1 [NVP-AUY922] : does drug sensitivity score equal or exceed 7?
Found: fulfilled

Lookup: Check the entry c1ccc([C@H]2CN3CCSC3=N2)cc1 [Levamisole, (Tetramisole hydrochloride)] : does drug sensitivity score equal or exceed 7?
Found: not fulfilled

Lookup: Check the entry CN(C)C/C=C/C(=O)Nc1cc2c(Nc3ccc(F)c(Cl)c3)ncnc2cc1O[C@H]1CCOC1 [Afatinib (BIBW2992, Tovok)] : does drug sensitivity score equal or exceed 7?
Found: not fulfilled

Lookup: Check the entry Cc1ccc([N+](=O)[O-])cc1S(=O)(=O)N(C)/N=C/c1cnc2ccc(Br)cn12 [PIK-75 (HCl)] : does drug sensitivity score equal or exceed 7?
Found: fulfilled

Lookup: Check the entry Clc1ccc(Nc2nnc(Cc3ccncc3)c3ccccc23)cc1 [Vatalanib] : does drug sensitivity score equal or exceed 7?
Found: not fulfilled

Lookup: Check the entry NCC(=O)CCC(=O)O [Aminolevulinic acid] : does drug sensitivity score equal or exceed 7?
Found: not fulfilled

Lookup: Check the entry C=CC(=O)N1CCC[C@@H](n2nc(-c3ccc(Oc4ccccc4)cc3)c3c(N)ncnc32)C1 : does drug sensitivity score equal or exceed 7?
Found: not fulfilled

Lookup: Check the entry Cc1c(CN2CCN(C(=O)[C@H](C)O)CC2)sc2c(N3CCOCC3)nc(-c3cnc(N)nc3)nc12 [GDC-0980] : does drug sensitivity score equal or exceed 7?
Found: fulfilled

Lookup: Check the entry CCc1cncnc1N1CCN(Cc2nc3ccc(C(F)(F)F)cc3[nH]2)CC1 : does drug sensitivity score equal or exceed 7?
Found: not fulfilled

Lookup: Check the entry C[C@@H](Oc1cc(-c2cnn(C3CCNCC3)c2)cnc1N)c1c(Cl)ccc(F)c1Cl [Crizotinib] : does drug sensitivity score equal or exceed 7?
Found: not fulfilled

Lookup: Check the entry O=C(O)CC[C@H]1CC[C@@](c2cc(F)ccc2F)(S(=O)(=O)c2ccc(Cl)cc2)CC1 [MK-0752] : does drug sensitivity score equal or exceed 7?
Found: not fulfilled

Lookup: Check the entry CC(=O)O[C@@]12CO[C@@H]1C[C@H](O)[C@@]1(C)C(=O)[C@H](O)C3=C(C)[C@@H](OC(=O)[C@H](O)[C@@H](NC(=O)OC(C)(C)C)c4ccccc4)C[C@@](O)([C@@H](OC(=O)c4ccccc4)[C@H]21)C3(C)C [Docetaxel] : does drug sensitivity score equal or exceed 7?
Found: fulfilled

Lookup: Check the entry CC(=O)OC[C@H]1O[C@@H]([S-])[C@H](OC(C)=O)[C@@H](OC(C)=O)[C@@H]1OC(C)=O.CCP(CC)CC.[Au+] [Auranofin] : does drug sensitivity score equal or exceed 7?
Found: fulfilled

Lookup: Check the entry C[C@]12CC[C@@H]3c4ccc(OC(=O)N(CCCl)CCCl)cc4CC[C@H]3[C@@H]1CC[C@@H]2O [Estramustine] : does drug sensitivity score equal or exceed 7?
Found: not fulfilled

Lookup: Check the entry CO[C@H]1C[C@@H]2CC[C@@H](C)[C@@](O)(O2)C(=O)C(=O)N2CCCC[C@H]2C(=O)O[C@H]([C@H](C)C[C@@H]2CC[C@@H](O)[C@H](OC)C2)CC(=O)[C@H](C)/C=C(\C)[C@@H](O)[C@@H](OC)C(=O)[C@H](C)C[C@H](C)/C=C/C=C/C=C/1C [Sirolimus (Rapamycin)] : does drug sensitivity score equal or exceed 7?
Found: fulfilled
